Source: patent EP4670717A1

molecular target: IDO1 (Homo sapiens, UniProt P14902); construct: BxPC3 cells were seeded in phenol red-free RPMI 1640 medium; endogenous in cells; host or cells: BxPC3 cells stimulated with IFN-γ (50 ng/mL); assay: IDO1 degradation in BxPC3 cells, IDO1 protein levels by immunoblotting; format: cell-based; settings: BxPC3 cells, 50 ng/ml IFN-γ 24 h, washout, compound (100 nM) 24 h; maximum IDO1 degradation at 0.1 µM
Sequence (P14902 whole entry): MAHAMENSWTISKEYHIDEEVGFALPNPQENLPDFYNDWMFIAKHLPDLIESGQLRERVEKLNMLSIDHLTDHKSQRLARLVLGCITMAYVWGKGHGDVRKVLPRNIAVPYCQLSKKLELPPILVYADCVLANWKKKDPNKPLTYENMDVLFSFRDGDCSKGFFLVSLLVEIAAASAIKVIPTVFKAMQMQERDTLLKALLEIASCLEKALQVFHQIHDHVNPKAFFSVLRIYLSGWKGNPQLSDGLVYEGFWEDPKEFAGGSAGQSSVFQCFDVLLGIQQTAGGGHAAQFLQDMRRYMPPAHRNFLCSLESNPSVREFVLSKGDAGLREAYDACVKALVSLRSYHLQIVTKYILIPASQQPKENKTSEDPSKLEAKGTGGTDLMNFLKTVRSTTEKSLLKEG
Let's look at some molecules and their measured Dmax [%] (n).

Some molecules with known Dmax [%] (n) results, for comparison:
CC(C)(C(=O)O)c1ccc(S(=O)(=O)N2C[C@H]3C[C@H]4C[C@H](C4(C)C)[C@@]3(COC(=O)Nc3ccc(I)cc3)C2)cc1 = 46 ± 21 (5) %
C#Cc1ccc(NC(=O)OC[C@]23CN(S(=O)(=O)c4ccc(C(C)(C)C)cc4)C[C@H]2C[C@H]2C[C@@H]3C2(C)C)cc1 = 62 ± 10 (5) %
CCc1cc(C(C)(C)C)ccc1S(=O)(=O)N1C[C@H]2C[C@H]3C[C@H](C3(C)C)[C@@]2(COC(=O)Nc2ccc(I)cc2)C1 = 56 ± 4 (3) %
CC(C)(C)c1ccc(S(=O)(=O)N2C[C@H]3C[C@H]4C[C@H](C4(C)C)[C@@]3(COC(=O)Nc3ccc(I)cc3)C2)c(I)c1 = 55 ± 5 (3) %

Query string: Requested read-out: Dmax [%] (n). Entry: CC(C)(CC(=O)O)c1ccc(S(=O)(=O)N2C[C@H]3C[C@H]4C[C@H](C4(C)C)[C@@]3(COC(=O)Nc3ccc(I)cc3)C2)cc1
Result string: 36 ± 2 (3) %

Query string: Another molecule to look at: COc1cc(C(C)(C)C)ccc1S(=O)(=O)N1C[C@H]2C[C@H]3C[C@H](C3(C)C)[C@@]2(COC(=O)Nc2ccc(I)cc2)C1
Result string: 59 ± 16 (3) %

Query string: Another molecule to look at: CC(C)(C)c1ccc(S(=O)(=O)N2C[C@H]3C[C@H]4C[C@H](C4(C)C)[C@@]3(COC(=O)Nc3ccc(I)cc3)C2)c(Br)c1
Result string: 56 ± 4 (3) %

###

Let's look at some compounds and their measured inhibition at 59 µM.
biological target: recombinant human IDO1 (rhIDO1) (Homo sapiens, UniProt P14902); construct: Full-length rhIDO protein (1 µM) in 50 mM potassium phosphate buffer; GST (cleaved yes); made in house; host or cells: E. coli; test: IDO1 enzymatic assay with recombinant protein, Kyn detection with p-DMAB; type: biochemical; conditions: in vitro inhibition at 59 uM; pre-incubated with compounds at 37°C for 40 min
Expressed in %, but write only the number.

Some compounds with known inhibition at 59 µM results, for comparison:
C#Cc1ccc(NC(=O)OC[C@]23CN(S(=O)(=O)c4ccc(C(C)(C)C)cc4C)C[C@H]2C[C@H]2C[C@@H]3C2(C)C)cc1 = 30
CCc1cc(C(C)(C)C)ccc1S(=O)(=O)N1C[C@H]2C[C@H]3C[C@H](C3(C)C)[C@@]2(COC(=O)Nc2ccc(I)cc2)C1 = 37
C#Cc1ccc(NC(=O)OC[C@]23CN(S(=O)(=O)c4ccc(C(C)(C)C)cc4)C[C@H]2C[C@H]2C[C@@H]3C2(C)C)cc1 = 49
CC(C)(C)c1ccc(S(=O)(=O)N2C[C@H]3C[C@H]4C[C@H](C4(C)C)[C@@]3(COC(=O)Nc3ccc(I)cc3)C2)c(C2CC2)c1 = 35
CC(C)(C(=O)O)c1ccc(S(=O)(=O)N2C[C@H]3C[C@H]4C[C@H](C4(C)C)[C@@]3(COC(=O)Nc3ccc(I)cc3)C2)c(Cl)c1 = 55

Query string: Requested read-out: inhibition at 59 µM. Entry: CC(C)(C)c1ccc(S(=O)(=O)N2C[C@H]3C[C@H]4C[C@H](C4(C)C)[C@@]3(COC(=O)Nc3ccc(I)cc3)C2)c(Br)c1
Result string: 12

###

target: IDO1 (Homo sapiens, UniProt P14902); construct: BxPC3 cells were seeded in phenol red-free RPMI 1640 medium; endogenous in cells; host or cells: BxPC3 cells stimulated with IFN-γ (50 ng/mL); test: IDO1 degradation in BxPC3 cells, IDO1 protein levels by immunoblotting; format: cell-based; conditions: BxPC3 cells, 50 ng/ml IFN-γ 24 h, washout, compound (100 nM) 24 h; maximum IDO1 degradation at 0.1 µM;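 note: IDO1 bands on Western blots detected with fluorescent dye-labelled secondary antibodies and quantified by band intensity, values are means of n biological replicates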
Observed Property: Dmax [%] (n)

C#Cc1ccc(NC(=O)OC[C@]23CN(S(=O)(=O)c4ccc(C(C)(C)C)cc4CC)C[C@H]2C[C@H]2C[C@@H]3C2(C)C)cc1 = 75%

Query string: Requested read-out: Dmax [%] (n). Entry: Cc1cc(C(C)(C)C)ccc1S(=O)(=O)N1C[C@H]2C[C@H]3C[C@H](C3(C)C)[C@@]2(COC(=O)Nc2ccc(I)cc2)C1
Result string: 65 ± 10(14) %

Query string: Another molecule to look at: CC(C)(C)c1ccc(S(=O)(=O)N2C[C@H]3C[C@H]4C[C@H](C4(C)C)[C@@]3(COC(=O)Nc3ccc(I)cc3)C2)c(C2CC2)c1
Result string: 55 ± 4 (3) %

###

molecular target: IDO1 (Homo sapiens); construct: BxPC3 cells were seeded in phenol red-free RPMI 1640 medium; endogenous in cells; host or cells: BxPC3 cells stimulated with IFN-γ (50 ng/mL); assay: Kyn assay in BxPC-3 cells (Kyn levels after IFN-γ and Trp); assay type: cell-based; conditions: BxPC-3 cells incubated with IFN-γ, Trp and the compounds for 48 h; read-out: Kyn assay IC50 ± SD;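 note: kyn levels expressed relative to DMSO-treated control cells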
pIC50: −log10 of the molar value.
Let's look at some compounds and their measured pIC50.

Some compounds with known pIC50 results, for comparison:
C#Cc1ccc(NC(=O)OC[C@]23CN(S(=O)(=O)c4ccc(C(C)(C)C(=O)O)cc4)C[C@H]2C[C@H]2C[C@@H]3C2(C)C)cc1 = > 6.70
CC(C)c1ccc(S(=O)(=O)N2C[C@H]3C[C@H]4C[C@H](C4(C)C)[C@@]3(COC(=O)Nc3ccc(I)cc3)C2)cc1 = > 6.70
Cc1ccc(NC(=O)OC[C@]23CN(S(=O)(=O)c4ccc(OC(F)(F)F)cc4)C[C@H]2C[C@H]2C[C@@H]3C2(C)C)cc1 = 5.30 to 6.00

Query string: Requested read-out: pIC50. Entry: CC1(C)[C@H]2C[C@@H]3CN(S(=O)(=O)c4ccc(-c5ccccc5)cc4)C[C@]3(COC(=O)Nc3ccc(I)cc3)[C@@H]1C2
Result string: 6.00 to 6.70

Query string: Another compound to look at: C#Cc1ccc(NC(=O)OC[C@]23CN(S(=O)(=O)c4ccc(C(C)(C)C)cc4)C[C@H]2C[C@H]2C[C@@H]3C2(C)C)cc1
Result string: > 6.70

Query string: Another compound to look at: CCOC(=O)C(C)(C)c1ccc(S(=O)(=O)N2C[C@H]3C[C@H]4C[C@H](C4(C)C)[C@@]3(COC(=O)Nc3ccc(I)cc3)C2)cc1
Result string: 6.00 to 6.70

Query string: Another compound to look at: Cc1cc(C(C)(C)C(=O)O)ccc1S(=O)(=O)N1C[C@H]2C[C@H]3C[C@H](C3(C)C)[C@@]2(COC(=O)Nc2ccc(I)cc2)C1
Result string: > 6.70

Query string: Another compound to look at: C#Cc1ccc(NC(=O)OC[C@]23CN(S(=O)(=O)c4ccc(C(C)(C)C(=O)O)cc4C)C[C@H]2C[C@H]2C[C@@H]3C2(C)C)cc1
Result string: > 6.70

Query string: Another compound to look at: CC(C)(C)c1ccc(S(=O)(=O)N2C[C@H]3C[C@H]4C[C@H](C4(C)C)[C@@]3(COC(=O)Nc3ccc(Br)cc3)C2)cc1
Result string: 6.00 to 6.70

Query string: Another compound to look at: Cc1ccc(S(=O)(=O)N2C[C@H]3C[C@H]4C[C@H](C4(C)C)[C@@]3(COC(=O)Nc3ccc(I)cc3)C2)cc1
Result string: 6.00 to 6.70

###

Let's look at some compounds and their measured Dmax at 0.1 µM.
biological target: IDO1 (Homo sapiens); construct: BxPC3 cells were seeded in phenol red-free RPMI 1640 medium; endogenous in cells; host or cells: BxPC3 cells stimulated with IFN-γ (50 ng/mL); assay: IDO1 degradation in BxPC3 cells, IDO1 protein levels by immunoblotting; type: cell-based; conditions: BXPC-3, BxPC3 cells, 50 ng/ml IFN-γ 24 h, washout, compound (100 nM) 24 h; maximum IDO1 degradation at 0.1 µM

Query string: Entry CC(C)(C(=O)O)c1ccc(S(=O)(=O)N2C[C@H]3C[C@H]4C[C@H](C4(C)C)[C@@]3(COC(=O)Nc3ccc(I)cc3)C2)cc1 [compound 65] , system IDO1 (Homo sapiens): what Dmax at 0.1 µM was measured?
Result string: 36 to 46%

Query string: Another compound to look at: CC(C)(C)c1ccc(S(=O)(=O)N2C[C@H]3C[C@H]4C[C@H](C4(C)C)[C@@]3(COC(=O)Nc3ccc(I)cc3)C2)c(Br)c1 [compound 56]
Result string: 55 to 59%
